# measuredTarget: human P2X2/3 receptor (Homo sapiens (Human), UniProt P56373+Q9UBL9)
# Sequence (P56373 whole entry): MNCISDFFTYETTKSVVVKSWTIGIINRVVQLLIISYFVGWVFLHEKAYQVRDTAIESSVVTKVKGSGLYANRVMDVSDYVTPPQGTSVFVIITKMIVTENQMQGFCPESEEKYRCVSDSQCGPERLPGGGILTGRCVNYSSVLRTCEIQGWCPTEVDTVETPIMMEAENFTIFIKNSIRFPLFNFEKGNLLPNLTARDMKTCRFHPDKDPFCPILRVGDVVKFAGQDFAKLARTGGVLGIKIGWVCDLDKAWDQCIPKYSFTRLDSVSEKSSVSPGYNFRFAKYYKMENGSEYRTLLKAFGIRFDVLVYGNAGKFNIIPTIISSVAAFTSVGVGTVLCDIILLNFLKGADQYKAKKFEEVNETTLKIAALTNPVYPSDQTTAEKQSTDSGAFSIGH
# Sequence (Q9UBL9 whole entry): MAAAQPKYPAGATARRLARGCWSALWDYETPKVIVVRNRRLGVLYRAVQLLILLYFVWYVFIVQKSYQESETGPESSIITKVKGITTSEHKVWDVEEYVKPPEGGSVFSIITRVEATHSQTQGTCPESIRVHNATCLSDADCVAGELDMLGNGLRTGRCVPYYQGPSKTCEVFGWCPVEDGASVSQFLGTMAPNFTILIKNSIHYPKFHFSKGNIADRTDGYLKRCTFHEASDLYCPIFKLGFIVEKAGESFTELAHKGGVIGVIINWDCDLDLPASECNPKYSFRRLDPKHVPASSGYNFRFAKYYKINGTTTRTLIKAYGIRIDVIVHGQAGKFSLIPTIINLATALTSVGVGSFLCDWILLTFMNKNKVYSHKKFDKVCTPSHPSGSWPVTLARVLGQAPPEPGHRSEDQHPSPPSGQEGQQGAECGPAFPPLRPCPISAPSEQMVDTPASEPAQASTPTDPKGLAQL
# measurementNotes: Intracellular calcium measurement (FLIPR, Fluo-4) of antagonist activity at human P2X2/3 receptors
# Assay type: cell-based
# protocolConditions: human P2X2/3, FLIPR calcium assay, agonist α,β-Me-ATP; read-out: hP2X2/3 IC50
recordedMetric: IC50 (nM)
Answer format: numeric, nM implied, no suffix.

> print(dat)
                                   compound  recordedmetric  datavalue
1  Cc1ccc(CNC(=O)c2cc(OCC3CCOCC3)cc(-c3ncc(C4CCC4)s3)c2)nn1            IC50        190
2  Cc1cnc([C@@H](C)NC(=O)c2cc(OC[C@@H]3CCCO3)cc(-c3ncc(C)s3)c2)cn1            IC50       2840
3  CC(C)c1cnc(-c2cc(OC[C@@H]3CCCO3)cc(C(=O)N[C@H](C)c3cnc(C(F)(F)F)nc3)c2)s1            IC50        368
4  Cc1ccc([C@@H](C)NC(=O)c2cc(OC[C@@H]3CCOC3)cc(-c3ncc(C(C)C)s3)c2)nn1            IC50        530
5  Cc1ccc([C@@H](C)NC(=O)c2cc(O[C@H]3CCOC3)cc(-c3ncc(C)s3)c2)cn1            IC50        485

INPUT: So what's the measured IC50 for this one? `Cc1cnc(-c2cc(O[C@H]3CCNC3)cc(C(=O)N[C@H](C)c3cnc(C(F)(F)F)nc3)c2)s1`
OUTPUT: 1560

INPUT: Next compound up: `CC(C)c1cnc(-c2cc(OC[C@H]3CCOC3)cc(C(=O)N[C@H](C)c3ccc(C(F)(F)F)nn3)c2)s1`
OUTPUT: 781

INPUT: Next compound up: `Cc1cnc(-c2cc(OC[C@@H]3COCCO3)cc(C(=O)N[C@H](C)c3cnc(C(F)(F)F)nc3)c2)s1`
OUTPUT: 1180

INPUT: Next compound up: `C#CCOc1cc(C(=O)N[C@H](C)c2ccc(C)nn2)cc(-c2ncc(C)s2)c1`
OUTPUT: 1180

INPUT: Next compound up: `Cc1ccc([C@@H](C)NC(=O)c2cc(Oc3nccs3)cc(-c3ncc(C)s3)c2)cn1`
OUTPUT: 414

INPUT: Next compound up: `Cc1cnc(-c2cc(OC3COC3)cc(C(=O)NCc3cnc(C(F)(F)F)nc3)c2)s1`
OUTPUT: 893

----------
# measuredTarget: human P2X2/3 receptor (Homo sapiens (Human), UniProt P56373+Q9UBL9)
# measurementNotes: Intracellular calcium measurement (FLIPR, Fluo-4) of antagonist activity at human P2X2/3 receptors
# Format: cell-based
# protocolConditions: human P2X2/3, FLIPR calcium assay, agonist α,β-Me-ATP; read-out: hP2X2/3 IC50
Overview of recorded log10 of IC50 for various compounds
The figures below represent log10 of IC50, where IC50 is stated in nM.

> print(dat)
                                    compound                            measuredtarget  recordedmetric  datavalue
 1  Cc1ccc([C@@H](C)NC(=O)c2cc(O[C@H]3CCOC3)cc(-c3ncc(Cl)s3)c2)nn1 [Example 322]  human P2X2/3 receptor (Homo sapiens (Human), UniProt P56373+Q9UBL9)   log10 of IC50       2.70
 2  Cc1cnc(-c2cc(OC3COC3)cc(C(=O)N[C@H](C)c3ccc(C(F)F)nc3)c2)s1 [Example 164]  human P2X2/3 receptor (Homo sapiens (Human), UniProt P56373+Q9UBL9)   log10 of IC50       3.05
 3  Cc1ccc([C@@H](C)NC(=O)c2cc(OC3COC3)cc(-c3ncc(C)s3)c2)nn1 [Example 47]  human P2X2/3 receptor (Homo sapiens (Human), UniProt P56373+Q9UBL9)   log10 of IC50       2.79
 4  Cc1cnc(-c2cc(OCC3CC3)cc(C(=O)NC(C)c3ncc(Cl)cc3F)c2)s1 (racemic) [Example 6]  human P2X2/3 receptor (Homo sapiens (Human), UniProt P56373+Q9UBL9)   log10 of IC50       1.58
 5  Cc1cnc(-c2cc(O[C@H]3C[C@H](N(C)C)C3)cc(C(=O)N[C@H](C)c3cnc(C(F)(F)F)nc3)c2)s1 [Example 165]  human P2X2/3 receptor (Homo sapiens (Human), UniProt P56373+Q9UBL9)   log10 of IC50       3.28
 6  Cc1cnc(-c2cc(OC[C@H]3CCCN3C)cc(C(=O)N[C@H](C)c3cnc(C(F)(F)F)nc3)c2)s1 [Example 379]  human P2X2/3 receptor (Homo sapiens (Human), UniProt P56373+Q9UBL9)   log10 of IC50       3.44
 7  C[C@@H](NC(=O)c1cc(OC[C@@H]2CN(C)CCO2)cc(-c2ncc(Cl)s2)c1)c1cnc(C(F)(F)F)nc1 [Example 376]  human P2X2/3 receptor (Homo sapiens (Human), UniProt P56373+Q9UBL9)   log10 of IC50       2.95
 8  Cc1cnc(-c2cc(OC[C@H]3COCCN3C)cc(C(=O)N[C@H](C)c3cnc(C(F)(F)F)nc3)c2)s1 [Example 360]  human P2X2/3 receptor (Homo sapiens (Human), UniProt P56373+Q9UBL9)   log10 of IC50       2.66
 9  Cc1cnc(-c2cc(OC3CCOCC3)cc(C(=O)N[C@@H](C)c3cnc(C(F)(F)F)nc3)c2)s1 [Example 145]  human P2X2/3 receptor (Homo sapiens (Human), UniProt P56373+Q9UBL9)   log10 of IC50       3.65
10  Cc1cnc(-c2cc(O[C@H]3CC[C@H]4[C@H]3OCCN4C)cc(C(=O)N[C@H](C)c3cnc(C(F)(F)F)nc3)c2)s1 [Example 219]  human P2X2/3 receptor (Homo sapiens (Human), UniProt P56373+Q9UBL9)   log10 of IC50       2.30

INPUT: So what's the measured log10 of IC50 for this one? Cc1cnc(-c2cc(OCC3CCOC3)cc(C(=O)NC(C)c3ncc(F)cc3Cl)c2)s1 (stereo in doubt) [Example 69]
OUTPUT: 2.97

INPUT: Next compound up: C#CCOc1cc(C(=O)N[C@H](C)c2ccc(C)nc2)cc(-c2ncc(C)s2)c1 [Example 33]
OUTPUT: 2.96

INPUT: Next compound up: CCc1cnc(-c2cc(OC[C@@H]3CCOC3)cc(C(=O)N[C@H](C)c3cnc(C)cn3)c2)s1 [Example 259]
OUTPUT: 2.01

INPUT: Next compound up: Cc1cnc(-c2cc(OC[C@@H]3COCC(=O)N3)cc(C(=O)N[C@H](C)c3cnc(C(F)(F)F)nc3)c2)s1 [Example 403]
OUTPUT: 3.32

INPUT: Next compound up: CCc1cnc(-c2cc(OC[C@@H]3CNCCO3)cc(C(=O)N[C@H](C)c3ccc(C(F)(F)F)nn3)c2)s1 [Example 414]
OUTPUT: 3.36
